Target: HER2 S310F (Homo sapiens, UniProt P04626, S310F)
Construct: expressed in transfected cells; host or cells: BaF3 (murine pro-B) transformants
Sequence (P04626 23-1255 S310F): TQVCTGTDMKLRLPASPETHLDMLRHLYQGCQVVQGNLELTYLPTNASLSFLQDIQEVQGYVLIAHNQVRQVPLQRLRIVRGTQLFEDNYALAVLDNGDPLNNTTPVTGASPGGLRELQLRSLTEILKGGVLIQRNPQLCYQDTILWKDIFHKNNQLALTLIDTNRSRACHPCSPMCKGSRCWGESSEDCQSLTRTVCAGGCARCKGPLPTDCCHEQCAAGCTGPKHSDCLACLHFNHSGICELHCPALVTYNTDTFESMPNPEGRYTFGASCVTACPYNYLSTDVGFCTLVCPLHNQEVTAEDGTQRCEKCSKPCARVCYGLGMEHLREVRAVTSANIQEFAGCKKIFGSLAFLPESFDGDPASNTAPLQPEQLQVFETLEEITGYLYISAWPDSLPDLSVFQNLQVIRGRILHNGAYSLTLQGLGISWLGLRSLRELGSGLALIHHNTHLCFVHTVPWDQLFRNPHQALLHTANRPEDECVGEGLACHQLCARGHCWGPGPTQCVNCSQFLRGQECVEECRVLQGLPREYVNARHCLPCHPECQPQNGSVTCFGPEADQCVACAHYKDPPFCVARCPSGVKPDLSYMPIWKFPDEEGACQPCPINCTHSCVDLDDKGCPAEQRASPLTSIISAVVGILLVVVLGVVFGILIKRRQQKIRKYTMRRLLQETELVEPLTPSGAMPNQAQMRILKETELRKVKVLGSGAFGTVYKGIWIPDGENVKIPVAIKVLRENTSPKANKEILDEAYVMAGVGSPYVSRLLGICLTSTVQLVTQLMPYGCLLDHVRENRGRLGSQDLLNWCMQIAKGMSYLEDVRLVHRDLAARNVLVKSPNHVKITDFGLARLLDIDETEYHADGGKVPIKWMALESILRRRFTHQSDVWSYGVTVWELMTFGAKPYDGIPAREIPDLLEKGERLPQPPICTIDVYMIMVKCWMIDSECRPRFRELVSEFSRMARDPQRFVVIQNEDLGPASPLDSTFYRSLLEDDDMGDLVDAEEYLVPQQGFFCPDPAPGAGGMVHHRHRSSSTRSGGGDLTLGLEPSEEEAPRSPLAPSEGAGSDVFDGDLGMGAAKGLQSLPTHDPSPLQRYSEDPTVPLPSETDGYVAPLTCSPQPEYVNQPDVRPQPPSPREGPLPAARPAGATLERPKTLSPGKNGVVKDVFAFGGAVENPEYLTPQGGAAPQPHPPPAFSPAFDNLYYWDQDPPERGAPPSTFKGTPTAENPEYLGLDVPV
Assay: Assay for cell proliferation (BaF3 transformants, CellTiterGlo), Activity for Inhibiting HER2
Format: cell-based
Conditions: Table B, potency code; 3 days drug
Readout kind: IC50

- Compound: "C=CC(=O)Nc1cc2c(Nc3ccc4c(cnn4Cc4cccc(F)c4)c3)ncnc2cc1C#CC(C)(C)N1CCN(C)CC1"
  IC50: "10 to 20 nM"

The following compounds each have a reported value; give each one's IC50.
1. C=CC(=O)Nc1cc2c(Nc3ccc4c(cnn4Cc4cccc(F)c4)c3)ncnc2cc1N(C)CCCN1CCOCC1
2. C=CC(=O)Nc1cc2c(Nc3ccc4c(cnn4Cc4cccc(F)c4)c3)ncnc2cc1OCCN1CCCCC1

Output line:
100 to 200 nM
10 to 20 nM

Briefly, IC50 measured for C=CC(=O)Nc1cc2c(Nc3ccc4c(cnn4Cc4cccc(F)c4)c3)ncnc2cc1N(C)CCCN1CC2CC1CO2 (stereo not shown) : 100 to 200 nM

----------
Biological target: EGFR V3 (EGFR-Viii) (Homo sapiens, UniProt P00533, DELINS30-297G)
Construct: expressed in transfected cells; host or cells: BaF3 (murine pro-B), retroviral pMXs-IRES-Blasticidin, selected for IL-3 independence
Sequence (P00533 with tags, fused parts or gaps DELINS30-297G): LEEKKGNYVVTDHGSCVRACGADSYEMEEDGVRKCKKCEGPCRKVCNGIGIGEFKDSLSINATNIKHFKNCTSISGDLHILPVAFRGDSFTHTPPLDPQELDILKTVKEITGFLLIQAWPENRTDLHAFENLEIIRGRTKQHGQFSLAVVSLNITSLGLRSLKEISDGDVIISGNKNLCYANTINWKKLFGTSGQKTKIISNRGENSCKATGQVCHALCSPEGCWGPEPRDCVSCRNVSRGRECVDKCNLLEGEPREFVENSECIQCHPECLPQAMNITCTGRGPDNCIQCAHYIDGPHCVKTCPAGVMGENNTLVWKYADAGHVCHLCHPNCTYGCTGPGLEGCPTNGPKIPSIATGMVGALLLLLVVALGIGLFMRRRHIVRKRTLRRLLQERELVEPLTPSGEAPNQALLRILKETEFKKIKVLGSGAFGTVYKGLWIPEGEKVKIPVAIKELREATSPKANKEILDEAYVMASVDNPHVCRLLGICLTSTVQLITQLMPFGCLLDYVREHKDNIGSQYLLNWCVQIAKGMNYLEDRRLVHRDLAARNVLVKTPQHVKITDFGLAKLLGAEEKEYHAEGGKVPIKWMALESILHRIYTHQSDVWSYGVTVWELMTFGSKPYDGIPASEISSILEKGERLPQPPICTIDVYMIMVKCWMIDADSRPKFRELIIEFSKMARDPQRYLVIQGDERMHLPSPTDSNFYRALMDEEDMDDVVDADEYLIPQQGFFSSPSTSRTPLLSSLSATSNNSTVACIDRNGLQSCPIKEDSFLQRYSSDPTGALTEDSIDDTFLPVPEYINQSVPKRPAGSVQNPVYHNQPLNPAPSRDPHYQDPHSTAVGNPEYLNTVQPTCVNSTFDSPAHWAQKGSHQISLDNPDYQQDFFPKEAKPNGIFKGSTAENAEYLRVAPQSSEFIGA
Assay: Assay for cell proliferation (BaF3 transformants, CellTiterGlo), Activity for Inhibiting EGFR
Assay type: cell-based
Settings: Table A, potency code; 3 days drug
pIC50: −log10 of the molar value.
Readout kind: pIC50

- Molecule: "C=CC(=O)Nc1cc2c(Nc3ccc4c(cnn4Cc4cccc(F)c4)c3)ncnc2cc1C#CC(C)(C)N1CCN(C)CC1"
  pIC50: "7.30 to 7.52"
- Molecule: "C=CC(=O)Nc1cc2c(Nc3ccc4c(cnn4Cc4cccc(F)c4)c3)ncnc2cc1OCCCN1CC2CC1CO2 (stereo not shown)"
  pIC50: "7.30 to 7.52"
- Molecule: "C=CC(=O)Nc1cc2c(Nc3ccc4c(cnn4Cc4cccc(F)c4)c3)ncnc2cc1OCCN(C)C"
  pIC50: "7.52 to 7.70"
- Molecule: "C=CC(=O)Nc1cc2c(Nc3ccc4c(cnn4Cc4cccc(F)c4)c3)ncnc2cc1N(C)CCCN1CC2CC1CO2 (stereo not shown)"
  pIC50: "6.70 to 7.00"

The following molecules each have a reported value; give each one's pIC50.
1. C=CC(=O)Nc1cc2c(Nc3ccc4c(cnn4Cc4cccc(F)c4)c3)ncnc2cc1NCCN1CCOCC1
2. C=CC(=O)Nc1cc2c(Nc3ccc4c(cnn4Cc4cccc(F)c4)c3)ncnc2cc1N(C)CCCN1CCOCC1

Output line:
1: 6.70 to 7.00; 2: 7.30 to 7.52

----------
Consider the following compounds; for each one, report its IC50.
Molecular target: HER2 WT (Homo sapiens)
Construct: endogenous in cells; host or cells: BT474
Sequence (P04626 23-1255): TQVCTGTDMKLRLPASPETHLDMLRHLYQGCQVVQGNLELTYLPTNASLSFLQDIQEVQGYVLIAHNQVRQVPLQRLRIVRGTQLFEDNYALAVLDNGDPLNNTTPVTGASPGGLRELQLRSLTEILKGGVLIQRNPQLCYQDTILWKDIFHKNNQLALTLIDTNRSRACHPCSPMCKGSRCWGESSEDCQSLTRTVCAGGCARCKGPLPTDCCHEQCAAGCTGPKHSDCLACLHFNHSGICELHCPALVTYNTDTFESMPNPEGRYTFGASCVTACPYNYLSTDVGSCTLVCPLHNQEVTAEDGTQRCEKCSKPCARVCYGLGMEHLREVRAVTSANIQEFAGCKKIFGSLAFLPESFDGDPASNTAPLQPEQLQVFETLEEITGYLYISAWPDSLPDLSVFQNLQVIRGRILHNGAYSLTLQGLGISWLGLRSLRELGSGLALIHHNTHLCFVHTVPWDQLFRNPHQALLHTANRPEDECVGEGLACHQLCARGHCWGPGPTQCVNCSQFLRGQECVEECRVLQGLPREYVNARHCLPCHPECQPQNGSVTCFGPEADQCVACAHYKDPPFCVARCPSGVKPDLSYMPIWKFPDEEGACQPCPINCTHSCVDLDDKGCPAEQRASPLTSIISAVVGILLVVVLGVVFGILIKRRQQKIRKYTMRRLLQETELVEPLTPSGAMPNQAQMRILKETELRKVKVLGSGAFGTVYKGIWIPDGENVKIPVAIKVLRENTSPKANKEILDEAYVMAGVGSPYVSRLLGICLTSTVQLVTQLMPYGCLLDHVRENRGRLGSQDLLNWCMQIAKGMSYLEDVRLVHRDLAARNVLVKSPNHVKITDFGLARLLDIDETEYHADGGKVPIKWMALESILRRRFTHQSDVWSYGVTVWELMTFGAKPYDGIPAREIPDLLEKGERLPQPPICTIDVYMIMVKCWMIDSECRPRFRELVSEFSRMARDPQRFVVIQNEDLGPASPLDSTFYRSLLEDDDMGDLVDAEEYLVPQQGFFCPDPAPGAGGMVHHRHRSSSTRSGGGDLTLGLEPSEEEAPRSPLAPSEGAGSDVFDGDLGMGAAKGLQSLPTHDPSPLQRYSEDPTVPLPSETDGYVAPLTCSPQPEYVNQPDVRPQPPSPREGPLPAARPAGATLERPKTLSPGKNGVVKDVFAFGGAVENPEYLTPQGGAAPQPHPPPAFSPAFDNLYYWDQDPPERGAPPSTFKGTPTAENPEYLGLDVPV
Test: Assay for cell proliferation (CellTiterGlo), Activity for Inhibiting HER2
Format: cell-based
Settings: Table B (Example 2), potency code; 3 days drug; read-out: HER2 WT

- Compound: "C=CC(=O)Nc1cc2c(Nc3ccc4c(cnn4Cc4cccc(F)c4)c3)ncnc2cc1C#CC(C)(C)N1CCN(C)CC1 [compound 9]"
  Measured on: "HER2 WT (Homo sapiens)"
  IC50: "0.005 to 0.01 µM"

The following compounds each have a reported value; give each one's IC50.
1. C=CC(=O)Nc1cc2c(Nc3ccc4c(cnn4Cc4cccc(F)c4)c3)ncnc2cc1N(C)CCN(C)C [compound 1]
2. C=CC(=O)Nc1cc2c(Nc3ccc4c(cnn4Cc4cccc(F)c4)c3)ncnc2cc1OCCCN1CC2CC1CO2 (stereo not shown) [compound 6]
3. C=CC(=O)Nc1cc2c(Nc3ccc4c(cnn4Cc4cccc(F)c4)c3)ncnc2cc1OCCN(C)C [compound 10]
4. C=CC(=O)Nc1cc2c(Nc3ccc4c(cnn4Cc4cccc(F)c4)c3)ncnc2cc1OCCN1CCOCC1 [compound 3]
5. C=CC(=O)Nc1cc2c(Nc3ccc4c(cnn4Cc4cccc(F)c4)c3)ncnc2cc1N(C)CCN1CCOCC1 [compound 2]
6. C=CC(=O)Nc1cc2c(Nc3ccc4c(cnn4Cc4cccc(F)c4)c3)ncnc2cc1N(C)CCCN1CCOCC1 [compound 4]

Output line:
1: 0.02 to 0.03 µM; 2: < 0.005 µM; 3: < 0.005 µM; 4: < 0.005 µM; 5: 0.02 to 0.03 µM; 6: 0.01 to 0.02 µM

----------
Target: EGFR SVD (Homo sapiens, UniProt P00533, INS770SVD)
Construct: expressed in transfected cells; host or cells: BaF3 (murine pro-B), retroviral pMXs-IRES-Blasticidin, selected for IL-3 independence
Sequence (P00533 with tags, fused parts or gaps INS770SVD): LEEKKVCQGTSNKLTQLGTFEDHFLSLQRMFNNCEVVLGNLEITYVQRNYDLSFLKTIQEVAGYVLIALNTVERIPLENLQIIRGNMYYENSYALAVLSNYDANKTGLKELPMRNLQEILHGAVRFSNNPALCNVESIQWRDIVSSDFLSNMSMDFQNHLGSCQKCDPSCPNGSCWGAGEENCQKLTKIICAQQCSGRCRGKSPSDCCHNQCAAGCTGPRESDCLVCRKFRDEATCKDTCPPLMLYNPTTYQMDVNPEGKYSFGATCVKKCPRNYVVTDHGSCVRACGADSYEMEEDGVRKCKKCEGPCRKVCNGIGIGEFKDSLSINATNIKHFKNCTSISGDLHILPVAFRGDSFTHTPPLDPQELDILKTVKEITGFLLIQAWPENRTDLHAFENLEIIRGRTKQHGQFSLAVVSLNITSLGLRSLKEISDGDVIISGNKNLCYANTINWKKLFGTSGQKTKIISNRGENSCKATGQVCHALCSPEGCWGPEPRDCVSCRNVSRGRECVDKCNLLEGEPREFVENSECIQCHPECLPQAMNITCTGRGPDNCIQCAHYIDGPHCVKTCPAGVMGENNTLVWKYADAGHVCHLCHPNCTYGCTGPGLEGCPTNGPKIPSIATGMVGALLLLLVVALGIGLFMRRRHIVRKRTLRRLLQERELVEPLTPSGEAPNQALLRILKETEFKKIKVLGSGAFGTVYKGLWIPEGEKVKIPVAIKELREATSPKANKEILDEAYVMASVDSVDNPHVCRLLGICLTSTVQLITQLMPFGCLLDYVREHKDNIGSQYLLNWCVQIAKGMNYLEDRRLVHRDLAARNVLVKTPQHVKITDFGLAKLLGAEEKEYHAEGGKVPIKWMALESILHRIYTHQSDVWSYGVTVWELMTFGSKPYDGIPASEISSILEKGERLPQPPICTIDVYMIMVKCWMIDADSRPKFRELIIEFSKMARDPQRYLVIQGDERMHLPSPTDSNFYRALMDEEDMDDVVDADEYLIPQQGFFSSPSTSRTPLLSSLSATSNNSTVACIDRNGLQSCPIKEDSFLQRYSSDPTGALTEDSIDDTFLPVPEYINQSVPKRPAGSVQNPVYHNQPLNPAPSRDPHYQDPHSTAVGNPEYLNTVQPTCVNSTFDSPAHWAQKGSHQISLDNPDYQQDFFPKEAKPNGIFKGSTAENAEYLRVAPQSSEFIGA
Test: Assay for cell proliferation (BaF3 transformants, CellTiterGlo), Activity for Inhibiting EGFR
Type: cell-based
Settings: Table A (Example 2), potency code; 3 days drug
pIC50: −log10 of the molar value.
Consider the following compounds; for each one, report its pIC50.

Field: example entries. Status: answers known.
- Compound: "C=CC(=O)Nc1cc2c(Nc3ccc4c(cnn4Cc4cccc(F)c4)c3)ncnc2cc1OCCN(C)C [compound 10]"
  pIC50: "7.30 to 7.52"
- Compound: "C=CC(=O)Nc1cc2c(Nc3ccc4c(cnn4Cc4cccc(F)c4)c3)ncnc2cc1OCCN1CCOCC1 [compound 3]"
  pIC50: "7.70 to 8.00"
- Compound: "C=CC(=O)Nc1cc2c(Nc3ccc4c(cnn4Cc4cccc(F)c4)c3)ncnc2cc1OCCN1CCCCC1 [compound 8]"
  pIC50: "7.30 to 7.52"

Query compound follows.
Briefly, pIC50 measured for C=CC(=O)Nc1cc2c(Nc3ccc4c(cnn4Cc4cccc(F)c4)c3)ncnc2cc1C#CC(C)(C)N1CCN(C)CC1 [compound 9] : 7.30 to 7.52

----------
Target: HER2 S310F (Homo sapiens, UniProt P04626, S310F)
Construct: expressed in transfected cells; host or cells: BaF3 (murine pro-B) transformants
Assay: Assay for cell proliferation (BaF3 transformants, CellTiterGlo), Activity for Inhibiting HER2
Assay type: cell-based
Conditions: Table B, potency code; 3 days drug
pIC50: −log10 of the molar value.
Readout kind: pIC50

Field: example entries. Status: answers known.
- Molecule: "C=CC(=O)Nc1cc2c(Nc3ccc4c(cnn4Cc4cccc(F)c4)c3)ncnc2cc1OCCN1CCOCC1"
  pIC50: "8.00 to 8.30"
- Molecule: "C=CC(=O)Nc1cc2c(Nc3ccc4c(cnn4Cc4cccc(F)c4)c3)ncnc2cc1N(C)CCN1CCOCC1"
  pIC50: "6.70 to 7.00"
- Molecule: "C=CC(=O)Nc1cc2c(Nc3ccc4c(cnn4Cc4cccc(F)c4)c3)ncnc2cc1OCCCN1CC2CC1CO2 (stereo not drawn)"
  pIC50: "7.70 to 8.00"
- Molecule: "C=CC(=O)Nc1cc2c(Nc3ccc4c(cnn4Cc4cccc(F)c4)c3)ncnc2cc1N(C)CCN(C)C"
  pIC50: "6.70 to 7.00"
- Molecule: "C=CC(=O)Nc1cc2c(Nc3ccc4c(cnn4Cc4cccc(F)c4)c3)ncnc2cc1OCCN(C)C"
  pIC50: "7.52 to 7.70"

Query molecule follows.
Briefly, pIC50 measured for "C=CC(=O)Nc1cc2c(Nc3ccc4c(cnn4Cc4cccc(F)c4)c3)ncnc2cc1NCCN1CCOCC1" : 6.70 to 7.00

----------
Consider the following molecules; for each one, report its IC50.
Target: EGFR V3 (EGFR-Viii) (Homo sapiens, UniProt P00533, DELINS30-297G)
Construct: expressed in transfected cells; host or cells: BaF3 (murine pro-B), retroviral pMXs-IRES-Blasticidin, selected for IL-3 independence
Assay: Assay for cell proliferation (BaF3 transformants, CellTiterGlo), Activity for Inhibiting EGFR
Type: cell-based
Details: Table A (Example 2), potency code; 3 days drug

Field: example entries. Status: answers known.
- Molecule: "C=CC(=O)Nc1cc2c(Nc3ccc4c(cnn4Cc4cccc(F)c4)c3)ncnc2cc1NCCN1CCOCC1 [compound 5]"
  Result: "100 to 200 nM"
- Molecule: "C=CC(=O)Nc1cc2c(Nc3ccc4c(cnn4Cc4cccc(F)c4)c3)ncnc2cc1N(C)CCN1CCOCC1 [compound 2]"
  Result: "30 to 50 nM"
- Molecule: "C=CC(=O)Nc1cc2c(Nc3ccc4c(cnn4Cc4cccc(F)c4)c3)ncnc2cc1N(C)CCCN1CCOCC1 [compound 4]"
  Result: "30 to 50 nM"
- Molecule: "C=CC(=O)Nc1cc2c(Nc3ccc4c(cnn4Cc4cccc(F)c4)c3)ncnc2cc1OCCN(C)C [compound 10]"
  Result: "20 to 30 nM"

The following molecules each have a reported value; give each one's IC50.
1. C=CC(=O)Nc1cc2c(Nc3ccc4c(cnn4Cc4cccc(F)c4)c3)ncnc2cc1OCCN1CCOCC1 [compound 3]
2. C=CC(=O)Nc1cc2c(Nc3ccc4c(cnn4Cc4cccc(F)c4)c3)ncnc2cc1N(C)CCCN1CC2CC1CO2 (stereo not shown) [compound 7]
3. C=CC(=O)Nc1cc2c(Nc3ccc4c(cnn4Cc4cccc(F)c4)c3)ncnc2cc1OCCN1CCCCC1 [compound 8]
4. C=CC(=O)Nc1cc2c(Nc3ccc4c(cnn4Cc4cccc(F)c4)c3)ncnc2cc1N(C)CCN(C)C [compound 1]
5. C=CC(=O)Nc1cc2c(Nc3ccc4c(cnn4Cc4cccc(F)c4)c3)ncnc2cc1OCCCN1CC2CC1CO2 (stereo not shown) [compound 6]
6. C=CC(=O)Nc1cc2c(Nc3ccc4c(cnn4Cc4cccc(F)c4)c3)ncnc2cc1C#CC(C)(C)N1CCN(C)CC1 [compound 9]

Output line:
1: 10 to 20 nM; 2: 100 to 200 nM; 3: 20 to 30 nM; 4: 50 to 100 nM; 5: 30 to 50 nM; 6: 30 to 50 nM

Hello, the source for this data is patent US20220041613A1, in case you need it.
